The reported measurements were obtained from ChEMBL document CHEMBL1201862.

Tested on: SF-295
Assay: NCI tumour cell line growth inhibition, 48 h
The source made the active and inactive calls. No stated cut-off is given here; in the data, active = GI50 up to about 1.1 µM and inactive = higher.
REPORTED_PROPERTY: GI50

- COMPOUND: "CCOC(=O)C(NC(=O)c1ccccc1)(N1CCN(c2cc3c(cc2F)c(=O)c(C(=O)O)cn3C2CC2)CC1)C(F)(F)F (stereo not given)"
  REPORTED_PROPERTY: "GI50"
  ASSAY_VALUE: "27 µM (inactive)"
- COMPOUND: "CC(C)/C(Cl)=N\\OC(=O)Nc1ccc(S(N)(=O)=O)cc1"
  REPORTED_PROPERTY: "GI50"
  ASSAY_VALUE: "15.7 µM (inactive)"
- COMPOUND: "COc1ccc2cc3c4cc5c(cc4cc[n+]3cc2c1OC)OCO5"
  REPORTED_PROPERTY: "GI50"
  ASSAY_VALUE: "5.53 µM (inactive)"
- COMPOUND: "CC(=N\\c1ccncc1)/C(C)=N/c1ccncc1"
  REPORTED_PROPERTY: "GI50"
  ASSAY_VALUE: "73.5 µM (inactive)"
- COMPOUND: "CCON=C1C(C)(C)C(C)(C)C(C)(C)C1(C)C"
  REPORTED_PROPERTY: "GI50"
  ASSAY_VALUE: "> 100 µM (inactive)"
- COMPOUND: "O=C(C(=O)n1ncc(Cl)c(Cl)c1=O)n1ncc(Cl)c(Cl)c1=O"
  REPORTED_PROPERTY: "GI50"
  ASSAY_VALUE: "93.5 µM (inactive)"
- COMPOUND: "CN1CCC23c4c5ccc(Oc6nnnn6-c6ccccc6)c4OC2c2[nH]c4ccccc4c2CC3(O)C1C5 (stereo not given)"
  REPORTED_PROPERTY: "GI50"
  ASSAY_VALUE: "3.95 µM (inactive)"
- COMPOUND: "CC1CC(N)=Nc2ccccc2N1Cc1ccccc1 (stereo not given)"
  REPORTED_PROPERTY: "GI50"
  ASSAY_VALUE: "14.5 µM (inactive)"
- COMPOUND: "COc1ccc(-c2nc(SCC(=O)N/N=C/c3ccc(N(C)C)cc3)[nH]c2-c2ccc(OC)cc2)cc1"
  REPORTED_PROPERTY: "GI50"
  ASSAY_VALUE: "37 µM (inactive)"
- COMPOUND: "COc1ccc(/C=C/C(=O)c2nc3ccccc3[nH]2)cc1"
  REPORTED_PROPERTY: "GI50"
  ASSAY_VALUE: "21 µM (inactive)"
